# EXPERIMENT_NOTES: hESC survival regulators, cell-based (AID 493140);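 further: cells exposed to compounds for four days before counting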
# TEST_SETTINGS: human embryonic stem cell survival screen; stronger effect = higher value
Label MET for high-side survival (at or above 10) and NOT MET for low-side survival (below it).

COMPOUND	ASSIGNED_CATEGORY
CCCN(CCC)S(=O)(=O)c1ccc(C(=O)O)cc1	NOT MET
OCCN(CCO)c1nc(N2CCCCC2)c2nc(N(CCO)CCO)nc(N3CCCCC3)c2n1	MET
CC1=NS(=O)(=O)c2cc(Cl)ccc2N1	MET
CNC(=O)Oc1ccc2c(c1)[C@]1(C)CCN(C)[C@@H]1N2C	NOT MET
CC(CN1c2ccccc2Sc2ccccc21)N(C)C (stereo not drawn)	NOT MET
NCc1ccc(S(N)(=O)=O)cc1	MET
NC(N)=NC(=O)c1nc(Cl)c(N)nc1N	NOT MET
CC(C)C(=O)Nc1ccc([N+](=O)[O-])c(C(F)(F)F)c1	MET
OCCN1CCN(CCCN2c3ccccc3Sc3ccc(Cl)cc32)CC1	NOT MET
Cc1ccc(Cl)c(Nc2ccccc2C(=O)O)c1Cl	MET
O=C1N=C(O)CN1/N=C/c1ccc(-c2ccc([N+](=O)[O-])cc2)o1	MET
COc1cc2nc(N3CCN(C(=O)c4ccco4)CC3)nc(N)c2cc1OC	NOT MET
Cc1nc2ccccn2c(=O)c1CCN1CCC(C(=O)c2ccc(F)cc2)CC1	NOT MET
N[C@@H]1CONC1=O	NOT MET
CNCCCC12CCC(c3ccccc31)c1ccccc12	NOT MET
CCc1nc(N)nc(N)c1-c1ccc(Cl)cc1	MET
c1ccc(CC2=NCCN2)cc1	MET
CC(=O)O[C@]1(C(C)=O)CC[C@H]2[C@@H]3C=C(C)C4=CC(=O)CC[C@]4(C)[C@H]3CC[C@@]21C	NOT MET
Cc1noc(NS(=O)(=O)c2ccc(N)cc2)c1C	NOT MET
CC(COc1ccccc1)N(CCCl)Cc1ccccc1 (stereo not drawn)	NOT MET
C[C@]12CCC(=O)C=C1CC[C@@H]1[C@@H]2[C@@H](O)C[C@@]2(C)[C@H]1CC[C@]2(O)C(=O)CO	NOT MET
CCN(CC)CCNC(=O)c1ccc(N)cc1	MET
CN(C)CCOC(c1ccccc1)c1ccccc1	MET
CCc1cccc2c3c([nH]c12)C(CC)(CC(=O)O)OCC3 (stereo not drawn)	MET
CN(C)CCOC(c1ccc(Cl)cc1)c1ccccn1 (stereo not drawn)	NOT MET
c1ccc2[nH]c(-c3cscn3)nc2c1	NOT MET
Cc1ccc(S(=O)(=O)NC(=O)NN2CCCCCC2)cc1	NOT MET
CCN(CC)CCCC(C)Nc1ccnc2cc(Cl)ccc12 (stereo not drawn)	NOT MET
C#C[C@]1(O)CC[C@H]2[C@@H]3CCC4=CC(=O)CC[C@@H]4[C@H]3CC[C@@]21CC	NOT MET
NS(=O)(=O)c1cc2c(cc1C(F)(F)F)NC(Cc1ccccc1)NS2(=O)=O (stereo not drawn)	NOT MET
CN(C)CCOC(C)(c1ccccc1)c1ccccn1 (stereo not drawn)	NOT MET
CCN(CC)CCOC(=O)C1(C2CCCCC2)CCCCC1	MET
Oc1ccc(/C=C/c2cc(O)cc(O)c2)cc1	MET
CC(C)NCC(O)c1cc(O)cc(O)c1 (stereo not drawn)	MET
CN1C(C(=O)Nc2ccccn2)=C(O)c2ccccc2S1(=O)=O	MET
CC1COc2c(N3CCN(C)CC3)c(F)cc3c(=O)c(C(=O)O)cn1c23 (stereo not drawn)	MET
CC(N=C(NC#N)Nc1ccncc1)C(C)(C)C (stereo not drawn)	MET
CCC(C)(C)C(=O)O[C@H]1C[C@@H](C)C=C2C=C[C@H](C)[C@H](CC[C@@H]3C[C@@H](O)CC(=O)O3)[C@H]21	NOT MET
CN[C@@H]1[C@H](O)[C@H](NC)[C@H]2O[C@@]3(O)C(=O)C[C@@H](C)O[C@H]3O[C@@H]2[C@H]1O	NOT MET
Clc1cccc(Cl)c1NC1=NCCN1	MET
CC(=O)Nc1nnc(S(N)(=O)=O)s1	MET
COCCOC(=O)C1=C(C)NC(C)=C(C(=O)OC(C)C)C1c1cccc([N+](=O)[O-])c1 (stereo not drawn)	NOT MET
CC[C@H](C)C(=O)O[C@H]1C[C@@H](C)C=C2C=C[C@H](C)[C@H](CC[C@@H]3C[C@@H](O)CC(=O)O3)[C@H]21	NOT MET
